Values from patent US11312712B2

tested.target: GluA1o-γ8 (GRIA1o-CACNG8 fusion construct) (Homo sapiens (Human), UniProt P42261+Q8WXS5)
Sequence (P42261 other isoform, or with tags, fused parts or gaps): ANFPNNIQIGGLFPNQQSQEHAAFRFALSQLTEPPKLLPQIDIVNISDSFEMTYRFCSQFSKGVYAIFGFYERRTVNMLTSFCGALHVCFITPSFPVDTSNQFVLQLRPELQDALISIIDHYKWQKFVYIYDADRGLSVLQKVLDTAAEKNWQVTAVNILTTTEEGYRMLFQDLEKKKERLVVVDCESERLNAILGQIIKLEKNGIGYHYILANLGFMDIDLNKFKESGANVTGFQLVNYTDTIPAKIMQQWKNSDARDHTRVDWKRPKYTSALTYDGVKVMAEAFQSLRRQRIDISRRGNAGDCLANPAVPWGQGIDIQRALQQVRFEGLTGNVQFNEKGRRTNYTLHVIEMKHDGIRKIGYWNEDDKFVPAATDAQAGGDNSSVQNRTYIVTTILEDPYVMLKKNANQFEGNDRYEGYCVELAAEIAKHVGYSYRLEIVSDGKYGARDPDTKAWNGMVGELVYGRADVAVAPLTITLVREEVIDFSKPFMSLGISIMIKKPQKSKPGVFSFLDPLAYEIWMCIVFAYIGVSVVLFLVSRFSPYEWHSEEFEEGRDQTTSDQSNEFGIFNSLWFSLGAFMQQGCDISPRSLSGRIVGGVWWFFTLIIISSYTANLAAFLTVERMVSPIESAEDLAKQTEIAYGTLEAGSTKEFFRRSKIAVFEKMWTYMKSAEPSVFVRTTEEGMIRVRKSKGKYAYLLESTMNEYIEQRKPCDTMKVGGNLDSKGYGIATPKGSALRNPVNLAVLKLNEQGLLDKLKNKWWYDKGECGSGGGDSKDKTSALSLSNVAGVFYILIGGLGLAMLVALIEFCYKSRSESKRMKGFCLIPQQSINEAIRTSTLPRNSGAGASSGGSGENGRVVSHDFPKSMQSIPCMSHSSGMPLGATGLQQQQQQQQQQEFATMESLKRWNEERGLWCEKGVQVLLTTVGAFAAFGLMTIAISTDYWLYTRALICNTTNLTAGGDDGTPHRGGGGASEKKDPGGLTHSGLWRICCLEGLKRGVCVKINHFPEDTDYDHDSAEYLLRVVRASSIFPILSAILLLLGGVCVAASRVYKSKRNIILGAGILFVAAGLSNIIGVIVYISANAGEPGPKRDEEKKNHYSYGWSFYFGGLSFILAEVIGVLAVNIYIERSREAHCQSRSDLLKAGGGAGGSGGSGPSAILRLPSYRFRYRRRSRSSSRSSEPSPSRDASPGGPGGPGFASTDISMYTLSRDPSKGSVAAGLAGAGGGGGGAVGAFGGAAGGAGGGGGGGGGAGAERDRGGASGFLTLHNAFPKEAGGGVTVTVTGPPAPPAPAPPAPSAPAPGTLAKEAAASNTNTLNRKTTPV
measurement.description: Calcium flux assay (FLIPR), inhibition of TARP γ8 dependent AMPA receptor activity
stated.conditions: GluA1o-γ8 (GRIA1o-CACNG8 fusion) in HEK293 cells, calcium flux after 15 μM glutamate
pIC50: −log10 of the molar value.

[
  {
    "smiles.code": "FC(F)(F)c1ccc2nc(-c3ccccc3)n(-c3ccc4[nH]ccc4c3)c2n1",
    "pIC50": 8.70
  },
  {
    "smiles.code": "COc1ccc2nc(-c3ccc(F)cc3)n(-c3ccc4[nH]ccc4c3)c2n1",
    "pIC50": 7.40
  },
  {
    "smiles.code": "Cc1nc2ccc(C(F)(F)F)nc2n1-c1ccc2[nH]ncc2c1",
    "pIC50": 7.20
  },
  {
    "smiles.code": "c1ccc(-c2nc3cccnc3n2-c2ccc3[nH]ncc3c2)cc1",
    "pIC50": 7.30
  },
  {
    "smiles.code": "Fc1n[nH]c2ccc(-n3c(C4CC4)nc4ccc(C(F)(F)F)nc43)cc12",
    "pIC50": 8.20
  },
  {
    "smiles.code": "CCCc1nc2ccc(C(F)(F)F)nc2n1-c1cc(Cl)c2[nH]ncc2c1",
    "pIC50": 9.90
  },
  {
    "smiles.code": "CC(C)Cc1nc2ccc(C(F)(F)F)nc2n1-c1cc(Cl)c2[nH]ncc2c1",
    "pIC50": 9.90
  },
  {
    "smiles.code": "Cc1cc(-n2c(C(C)C)cc3ccc(C(F)F)nc32)cc2c1NC(=O)C2",
    "pIC50": 10.40
  },
  {
    "smiles.code": "Fc1ccc(-c2cc3ccc(F)nc3n2-c2ccc3[nH]ccc3c2)cc1",
    "pIC50": 7.00
  }
]
